Each recorded value in this set is attributed to patent US20210380703A1.

# TARGET SYSTEM: T1, biotinylated goat anti-human kappa light chain
# T1 construct: positive control of the ELISA
# PROTOCOL SUMMARY: ELISA, positive control; also: test concentration or dose not given here
REPORTED ENDPOINT: optical density (OD)
Give the value in OD but do not write OD after it.

// worked examples, optical density included
BINDER	UNIT LABEL	optical density
366_F02 (antibody, V domains shown, Group III) VH: EVQLLESGGGLVQPGGSLRLSCAASGFTFSSYGMNWVRQAPGKGLEWVSGINYNSGYTGYADSVKGRFTISRDNSKNTLYLQMNSLRAEDTAVYYCARGANWHDTHLDYWGQGTLVTVSS VL: DIQMTQSPSSLSASVGDRVTITCRASQSILTYLNWYQQKPGKAPKLVIYAATSRHSGVPSRFSGSGSGTDFTLTISSLQPEDFATYYCQQSYDNPLTFGGGTKVEIK	OD	3.6
366_F10 (antibody, V domains shown, Group I) VH: EVQLLESGGGLVQPGGSLRLSCAASGFTFDSYSMNWVRQAPGKGLEWVAGINYNGGYTGYADSVKGRFTISRDNSKNTLYLQMNSLRAEDTAVYYCARAANWHDTHLDYWGQGTLVTVSS VL: DIQMTQSPSSLSASVGDRVTITCRASQSIVSYLNWYQQKPGKAPKLVIYAATSRASGVPSRFSGSGSGTDFTLTISSLQPEDFATYYCQQSYDTPLTFGGGTKVEIK	OD	3.52
368_E05 (antibody, V domains shown, Group II) VH: EVQLLESGGGLVQPGGSLRLSCAASGFTFDSYSMHWVRQAPGKGLEWVSSINYNGGYKSYADSVKGRFTISRDNSKNTLYLQMNSLRAEDTAVYYCARAATWHDTHLDYWGQGTLVTVSS VL: DIQMTQSPSSLSASVGDRVTITCRASQSILSYLNWYQQKPGKAPKLVIYAATSRASGVPSRFSGSGSGTDFTLTISSLQPEDFATYYCQQSYSSPLTFGGGTKVEIK	OD	3.37
368_D06 (antibody, V domains shown, Group II) VH: EVQLLESGGGLVQPGGSLRLSCAASGFTFSSYGMNWVRQAPGKGLEWVSNINYNGGYTGYADSVKGRFTISRDNSKNTLYLQMNSLRAEDTAVYYCARAATWHDTHLDYWGQGTLVTVSS VL: DIQMTQSPSSLSASVGDRVTITCRASQSILSYVNWYQQKPGKAPKLVIYAATSRHSGVPSRFSGSGSGTDFTLTISSLQPEDFATYYCQQSYENPLTFGGGTKVEIK	OD	3.41
367_H01 (antibody, V domains shown, Group I) VH: EVQLLESGGGLVQPGGSLRLSCAASGFTFDSYGMNWVRQAPGKGLEWVSGINYNGGYKSYADSVKGRFTISRDNSKNTLYLQMNSLRAEDTAVYYCARAANWHDTALDYWGQGTLVTVSS VL: DIQMTQSPSSLSASVGDRVTITCRASQSILTYLNWYQQKPGKAPKLVIYAATSRASGVPSRFSGSGSGTDFTLTISSLQPEDFATYYCQQSYDNPLTFGGGTKVEIK	OD	3.65

[Q] So what's the measured optical density for this one? 373_E11 (antibody, V domains shown, Group I) VH: EVQLLESGGGLVQPGGSLRLSCAASGFTFDSYGMHWVRQAPGKGLEWVASINYNGGYTSYADSVKGRFTISRDNSKNTLYLQMNSLRAEDTAVYYCARAANWHDTALDYWGQGTLVTVSS VL: DIQMTQSPSSLSASVGDRVTITCRASQSIVSYLNWYQQKPGKAPKLVIYAATSRASGVPSRFSGSGSGTDFTLTISSLQPEDFATYYCQQSYDSPLTFGGGTKVEIK
[A] 3.17

[Q] So what's the measured optical density for this one? 368_D03 (antibody, V domains shown, Group II) VH: EVQLLESGGGLVQPGGSLRLSCAASGFTFSDYSMHWVRQAPGKGLEWVASINYNGGYTSYADSVKGRFTISRDNSKNTLYLQMNSLRAEDTAVYYCARAATWHDTHLDYWGQGTLVTVSS VL: DIQMTQSPSSLSASVGDRVTITCRASQSIITYVNWYQQKPGKAPKLLIYATTSRASGVPSRFSGSGSGTDFTLTISSLQPEDFATYYCQQSYDLPLTFGGGTKVEIK
[A] 3.49

[Q] So what's the measured optical density for this one? 365_F11 (antibody, V domains shown, Group I) VH: EVQLLESGGGLVQPGGSLRLSCAASGFTFDSYSMNWVRQAPGKGLEWVSGINYNSGYKGYADSVKGRFTISRDNSKNTLYLQMNSLRAEDTAVYYCARAANWHDTHLDYWGQGTLVTVSS VL: DIQMTQSPSSLSASVGDRVTITCRASQSIISYVNWYQQKPGKAPKLLIYAATSRASGVPSRFSGSGSGTDFTLTISSLQPEDFATYYCQQSYNTPLTFGGGTKVEIK
[A] 3.5

[Q] So what's the measured optical density for this one? 369_E03 (antibody, V domains shown, Group II) VH: EVQLLESGGGLVQPGGSLRLSCAASGFTFSSYGMHWVRQAPGKGLEWVAGINYNGGYTSYADSVKGRFTISRDNSKNTLYLQMNSLRAEDTAVYYCARAATWHDTHLDYWGQGTLVTVSS VL: DIQMTQSPSSLSASVGDRVTITCRASQSILSYVNWYQQKPGKAPKLLIYAATSLASGVPSRFSGSGSGTDFTLTISSLQPEDFATYYCQQSYENPLTFGGGTKVEIK
[A] 3.37

[Q] So what's the measured optical density for this one? 376_H12 (antibody, V domains shown, Group II) VH: EVQLLESGGGLVQPGGSLRLSCAASGFTFSDYGMHWVRQAPGKGLEWVASINYNGGYTSYADSVKGRFTISRDNSKNTLYLQMNSLRAEDTAVYYCARAATWHDTHLDYWGQGTLVTVSS VL: DIQMTQSPSSLSASVGDRVTITCRASQSIITYLNWYQQKPGKAPKLVIYAATSRASGVPSRFSGSGSGTDFTLTISSLQPEDFATYYCQQSYESPLTFGGGTKVEIK
[A] 3.49
